Assign glycan array binding signal (z-score) to each entry below.
Target: GalNAc4S6S(b1-4)GlcNAc
Test: glycan array binding signal (z-score within array); higher = stronger binding
Conditions: glycan notation: IUPAC condensed, linker removed
Only a selection was taken, and the strongest signals are over-represented in it overall.
Answers are plain numbers.

HHA (Hippeastrum hybrid) (protein) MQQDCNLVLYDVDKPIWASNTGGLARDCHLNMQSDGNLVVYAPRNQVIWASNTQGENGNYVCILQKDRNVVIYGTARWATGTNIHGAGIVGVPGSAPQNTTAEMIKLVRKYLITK ... -0.218

Alright, here's another binder for you.
Ask: Entry XTP3-B-MRH1 (Homo sapiens), Q96DZ1 (protein) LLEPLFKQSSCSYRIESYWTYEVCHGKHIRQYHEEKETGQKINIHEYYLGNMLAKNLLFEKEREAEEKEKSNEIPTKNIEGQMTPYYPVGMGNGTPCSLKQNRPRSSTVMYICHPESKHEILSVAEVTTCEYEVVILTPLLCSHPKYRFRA has what glycan array binding signal (z-score)?
Reply: -0.682

Where do these numbers come from? They come from the supplement of paper PMC8728848.
